meta.source: paper PMC9911399

Biological target: T1, RBFOX1 RRM (Homo sapiens, UniProt Q9NWB1 109-208)
T1 sequence: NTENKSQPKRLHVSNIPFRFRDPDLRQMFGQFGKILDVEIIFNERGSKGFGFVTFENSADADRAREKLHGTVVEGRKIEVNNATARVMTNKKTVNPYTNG
Assay: EMSA; HiTS-Eq, 1 nM pool, 10 min; buffer printed only for the single-RNA assays: 10 mM Tris pH 7.5, 150 mM NaCl, 3.4 mM EDTA, 0.001% NP-40, 30 C
Conditions: tags: His6 N-terminal (pET28a); label: 5' 32P
Over roughly 16,000 sequences, “ka relative to ugcaugu” has its median near 0.0091; the highest 2% begin near 0.032. The entries come from a sample that favours the highest values as a whole.
Assay endpoint: binding signal

Examples from the recorded data:
Data point: GAGGGUG (DNA:RNA) RNA: GGGAGACCGGAAUUCAGAUUGUCCGAGGGUGUUAAAUCCCGUCGUAGCCACCA DNA 1: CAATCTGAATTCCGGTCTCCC DNA 2: TGGTGGCTACGACGGGATT ; binding signal = 0.0242 KA relative to UGCAUGU

Data point: ACCAGAU (DNA:RNA) RNA: GGGAGACCGGAAUUCAGAUUGUCCACCAGAUUUAAAUCCCGUCGUAGCCACCA DNA 1: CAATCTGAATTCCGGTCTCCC DNA 2: TGGTGGCTACGACGGGATT ; binding signal = 0.00102 KA relative to UGCAUGU

---
Data point: GUAUUGA (DNA:RNA) RNA: GGGAGACCGGAAUUCAGAUUGUCCGUAUUGAUUAAAUCCCGUCGUAGCCACCA DNA 1: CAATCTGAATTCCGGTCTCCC DNA 2: TGGTGGCTACGACGGGATT ; binding signal = 0.0118 KA relative to UGCAUGU

Data point: UUACAAU (DNA:RNA) RNA: GGGAGACCGGAAUUCAGAUUGUCCUUACAAUUUAAAUCCCGUCGUAGCCACCA DNA 1: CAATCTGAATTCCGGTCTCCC DNA 2: TGGTGGCTACGACGGGATT ; binding signal = 0.00107 KA relative to UGCAUGU
